target: EcDHFR D27E (Escherichia coli, UniProt P0ABQ4, D27E); construct: using E. coli DHFR template previously synthesized by GeneScript; assay: Enzyme inhibition assay (NADPH oxidation, 340 nm)
Task for the reader: assign each of the following compounds its reported pKi.
# pKi: negative log10 of molar concentration; output just the value

Exercise: If you can, please state the reported pKi value of CCc1nc(N)nc(N)c1C#CC(C)c1cc(-c2ccc(C(N)=O)cc2)ccc1Cl (centres unmarked) .
Solution: 7.93

Exercise: Recorded pKi for CCc1nc(N)nc(N)c1C#CC(C)c1cc2c(c(-c3ccc(CN)cc3)c1)OCO2 (centres unmarked) , please?
Solution: 7.89

###

molecular target: DfrA5 (Escherichia coli); experiment: biochemical; assay type: binding, E. coli; details: DfrA5 apo, series NADPH KD ± UCP1228
Metric name: Kd

Exercise: Look up Kd: NC(=O)C1=CN([C@@H]2O[C@H](COP(=O)(O)OP(=O)(O)OC[C@H]3O[C@@H](n4cnc5c(N)ncnc54)[C@H](OP(=O)(O)O)[C@@H]3O)[C@@H](O)[C@H]2O)C=CC1 [NADPH]
Solution: 6.84 µM

###

molecular target: UniProtKB P11731; test: biochemical; format: binding, E. coli; details: DfrA5:TMP, titrant NADPH
Metric name: Kd (nM)
Express your answer in nM, writing the number without its unit.

Exercise: Endpoint output: Kd of NC(=O)C1=CN([C@@H]2O[C@H](COP(=O)(O)OP(=O)(O)OC[C@H]3O[C@@H](n4cnc5c(N)ncnc54)[C@H](OP(=O)(O)O)[C@@H]3O)[C@@H](O)[C@H]2O)C=CC1 . Value?
Solution: 1540

###

molecular target: DfrA1 (Escherichia coli, UniProt P00382); construct: dfrA1 gene (UniProtKB:A4GRC7) were synthesized and cloned in pET-41a (+) vector; made in house; host or cells: E. coli BL21(DE3); assay: biochemical; assay type: binding, E. coli; details: KD, DfrA1:UCP1228 (100 µM UCP1228), titrant NADPH
Metric name: pKd
// pKd here means minus log10 of the molar concentration (mol/L)

Exercise: Request the reported pKd associated with NC(=O)C1=CN([C@@H]2O[C@H](COP(=O)(O)OP(=O)(O)OC[C@H]3O[C@@H](n4cnc5c(N)ncnc54)[C@H](OP(=O)(O)O)[C@@H]3O)[C@@H](O)[C@H]2O)C=CC1
Solution: 6.54

The reported measurements were obtained from paper PMC9106665.
